Tested on: P388 leukemia ip, CD2F1 mice, survival T/C
Experiment: NCI In Vivo Anticancer Drug Screen. Data for tumor model P388 Leukemia (intraperitoneal) in CD2F1 (CDF1) mice
Settings: endpoint: median survival time; dose: 50.0 mg/kg/injection; schedule: Q01DX009 (ip); vehicle: saline; higher = longer survival
Toxic doses and inconclusive results are not listed.
measurementKind: T/C

compound: CNC(=S)NNC1=NC(=S)NC1(C)C
T/C: 98 % of control

Here are 2 compounds. What values of T/C were reported for them?
1. OCC1OC2OC3C(CO)OC(OC4C(CO)OC(OC5C(CO)OC(OC6C(CO)OC(OC7C(CO)OC(OC8C(CO)OC(OC1C(O)C2O)C(O)C8O)C(O)C7O)C(O)C6O)C(O)C5O)C(O)C4O)C(O)C3O (stereo not drawn)
2. Cc1ccc(C(=O)OC(CCN(C)C)c2ccccc2)cc1 (stereo not drawn)

1: 100 % of control; 2: 109 % of control
